# measurement.protocol: chemical genetic growth profiling, strain panel (AID 1159580);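 further: tested at 20 µM; growth read once vehicle control cultures reached saturation at 30 °C; 1 = growth at the plate median or of vehicle wells; lower values mean less growth of the strain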
# condition.description: S. cerevisiae deletion strains, growth OD, locus YLR102C, strain apc9, hits give low values
Among all 5,500 compounds or so, about 2,000 (36%) were called active. Roughly 18% stayed inconclusive and do not appear here. This is one part of the list.

| compound | normalized growth |
| --- | --- |
| CC1(C)CC2C1CCC1(C)OC1CCC2(C)O (stereo unspecified) | 1.01 |
| CC[C@@H]1[C@@H](O)N2C3C[C@H]1C1C(O)[C@]4(C[C@@H]12)c1ccccc1N(C)[C@@H]34 (stereo partly specified) | 0.973 |
| Nc1ccc(S(=O)(=O)Nc2nccs2)cc1 | 0.995 |
| COc1cc(/C=C/C(=O)O)ccc1O | 0.98 |
| C=CCN1CC[C@]23c4c5ccc(O)c4OC2C(=O)CC[C@@]3(O)[C@H]1C5 (stereo partly specified) | 0.998 |
| COc1cc(/C=C/C(=O)O)cc(OC)c1OC | 1.02 |
| CCn1cc(C(=O)O)c(=O)c2cnc(N3CCNCC3)nc21 | 0.993 |
| COc1ccc(-c2cc(C(F)F)nn2-c2ccc(S(N)(=O)=O)cc2)cc1F | 1.01 |
| CN(C)CCCO[C@H]1[C@@H](C(O)CO)OC2OC(C)(C)O[C@@H]21 (stereo partly specified) | 0.988 |
| CCn1cc(C(=O)O)c(=O)c2ccc(C)nc21 | 0.933 |
| C[C@@]12C(=O)OC(=O)[C@]1(C)C1CCC2O1 | 0.833 |

----------
# measurement.protocol: chemical genetic growth profiling, strain panel (AID 1159580)
# condition.description: S. cerevisiae deletion strains, growth OD, locus YCL061C, strain MRC1, hits give low values
The campaign covered roughly 5,500 compounds. About 2,000 (36%) were called active. Another 18% or so got no clear call; they are omitted. The list shows a part of the results.
reported.endpoint: normalized growth

| compound | reported.endpoint | assay.value |
| --- | --- | --- |
| NCc1ccc(S(N)(=O)=O)cc1 | normalized growth | 1.02 |
| S=C(NCCCn1ccnc1)Nc1cc(Cl)ccc1Cl | normalized growth | 0.979 |
| COc1ccc(OC)c(S(=O)(=O)NCc2c(F)cccc2Cl)c1 | normalized growth | 1.01 |
| O=C(CCCCCCCCC(=O)c1ccccc1)c1ccccc1 | normalized growth | 1.01 |
| COc1cc(C)c2c(c1C=O)Oc1c(c(C)c(O)c3c1C(O)OC3=O)OC2=O (stereo unspecified) | normalized growth | 1.02 |
| O=S(=O)(c1cc(Br)c(Br)s1)N1CCCCC1 | normalized growth | 0.967 |

----------
# measurement.protocol: chemical genetic growth profiling, strain panel (AID 1159580);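 further: tested at 20 µM; growth read once vehicle control cultures reached saturation at 30 °C; 1 = growth at the plate median or of vehicle wells; lower values mean less growth of the strain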
# condition.description: S. cerevisiae deletion strains, growth OD, locus YDL132W, strain cdc53, hits give low values
About 2,000 (36%) of roughly 5,500 compounds were called active. Not shown: some 18% with an inconclusive outcome. Some of the results follow.

| compound | normalized growth |
| --- | --- |
| COc1cc(C(=O)Oc2c(Cl)cc(Cl)cc2C=Nc2ccc([N+](=O)[O-])cc2C#N)cc(OC)c1OC | 0.967 |
| O=C1/C(=C/c2c(F)cccc2Cl)Cc2ccccc21 | 0.96 |
| COCCOc1ccccc1NC(=S)SCCSC(=S)Nc1ccccc1OCCOC | 0.976 |
| CCC1CCC(C)N(C(=S)Nc2ccc(Br)cc2C)C1 (centres undefined) | 0.956 |
| CCOC(=O)CCc1cc(N=Cc2cc(Br)ccc2O)c(O)c(N=Cc2cc(Br)ccc2O)c1 | 0.961 |
| CSc1cccc(N2C(=O)CC(c3c(Cl)cccc3Cl)CC2=O)c1 | 0.982 |
| CCc1cc2c(cc1-c1csc(C/C(N)=N\O)n1)C(C)(C)CCC2(C)C | 0.965 |
| CC(C)(O)C#Cc1ccc(/C=N\Nc2c(Cl)cc(Cl)cc2Cl)cc1 | 0.969 |
| CCOC(=O)NC(=S)NC12CC3CC(CC(C3)C1)C2 | 0.971 |
| COc1cc(Cl)c(NS(=O)(=O)c2cc(Br)c(Br)s2)c(OC)c1 | 0.954 |
| CC12CC[C@@H](O)CC1=CC[C@@H]1C2CCC2(C)C(=O)CC[C@@H]12 (some centres undefined) | 1.02 |
| CSc1c(C#N)c(-c2ccc(Cl)cc2)nn1C(=O)c1ccccc1Cl | 0.948 |
| O=C(NCc1ccco1)c1csc(C2COc3ccccc3O2)n1 (centres undefined) | 0.897 |
| COc1cc(N=Cc2cc(Cl)cc(Cl)c2OC(=O)c2cc(OC)c(OC)c(OC)c2)c(OC)cc1Cl | 0.966 |
| OC(c1ccc(C(F)(F)F)cc1)c1cccc(C(F)(F)F)c1 (centres undefined) | 0.974 |
| Clc1ccc(-c2noc(CSC3=NCCN3)n2)cc1 | 0.98 |
| COc1cc(N=Cc2cc(Cl)cc(Cl)c2OS(=O)(=O)c2ccc(C)cc2)c(OC)cc1Cl | 0.942 |
| Cc1nc(C(F)(F)F)c(C(=O)O/N=C(/N)c2ccc(Cl)cc2)s1 | 0.997 |
| Cc1cc(C(=O)O/N=C(/N)c2ccc(C(C)(C)C)cc2)no1 | 0.975 |
| Cc1cc(C(=O)O/N=C(/N)c2ccc([N+](=O)[O-])o2)no1 | 0.968 |
| CCCCCc1ccc(S(=O)(=O)Nc2ccc3c(c2)C(=O)OC3)cc1 | 0.985 |
| CC(C)(O)C#Cc1ccc(/C=N\Nc2ccccc2)cc1 | 0.949 |
| N#CC1=C(N)C(C#N)(C#N)C2(CCCCC2)C2CCCC=C12 (centres undefined) | 0.98 |
| CCOC(=O)c1c(N=Cc2cc(Br)c(Br)cc2O)sc2c1CCCC2 | 0.964 |
| O=C(Nc1ccc(Cl)cc1Cl)c1cnccc1C(F)(F)F | 0.972 |
| O=C(CO/N=C\c1ccc(Cl)cc1Cl)NNC(=S)Nc1cc(Cl)ccc1Cl | 1 |
| Nc1cc(-c2ccc(OC(F)(F)F)cc2)nn1-c1ccc(Cl)c(Cl)c1 | 0.971 |
| O=C(Nc1cccc(C(F)(F)F)c1)Oc1ccc(F)cc1Cl | 0.974 |
| COc1cc(C(=O)Oc2c(Cl)cc(Cl)cc2C=Nc2cccc([N+](=O)[O-])c2)cc(OC)c1OC | 0.962 |

----------
# measurement.protocol: chemical genetic growth profiling, strain panel (AID 1159580);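 further: tested at 20 µM; growth read once vehicle control cultures reached saturation at 30 °C; 1 = growth at the plate median or of vehicle wells; lower values mean less growth of the strain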
# condition.description: S. cerevisiae deletion strains, growth OD, locus YMR125W, strain sto1, hits give low values
About 2,000 (36%) of roughly 5,500 compounds were called active. Another 18% or so got no clear call; they are omitted. This is one part of the list.
Below is a list of entries, each paired with its recorded normalized growth value.
reported.endpoint: normalized growth

| compound | assay.value |
| --- | --- |
| COc1cc(C)c2c(c1C=O)Oc1c(c(C)c(O)c3c1C(O)OC3=O)OC2=O (stereo unspecified) | 0.999 |
| CC1=C(/C=C/C(C)=C/C=C/C(C)=C/C=C/C=C(C)/C=C/C=C(C)/C=C/C2=C(C)CCCC2(C)C)C(C)(C)CCC1 | 0.929 |
| O=C(O)c1cc(O)c(O)c(O)c1 | 1.03 |
| CC(COc1ccccc1)N(CCCl)Cc1ccccc1 (stereo unspecified) | 0.987 |
| CN(Cc1cc(Br)cc(Br)c1N)C1CCCCC1 | 1.06 |
| CCn1cc(C(=O)O)c(=O)c2ccc(C)nc21 | 1.02 |
| CC1=C(/C=C/C(C)=C/C=C/C(C)=C/C(=O)O)C(C)(C)CCC1 | 1 |
| O=C(O)c1cc(=O)c(O)c2c(O)c(O)ccc2c1 | 0.987 |
| C[C@H](COc1ccccc1)N[C@H](C)[C@H](O)c1ccc(O)cc1 | 0.984 |
| NCc1ccc(S(N)(=O)=O)cc1 | 1.04 |
| O=C(O)c1cc(=O)c(O)c2c(O)c(O)c(O)cc2c1 | 0.89 |

----------
# measurement.protocol: chemical genetic growth profiling, strain panel (AID 1159580);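 further: tested at 20 µM; growth read once vehicle control cultures reached saturation at 30 °C; 1 = growth at the plate median or of vehicle wells; lower values mean less growth of the strain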
# condition.description: S. cerevisiae deletion strains, growth OD, locus YLL041C, strain sdh2
The whole screen tested about 5,500 compounds, of which about 2,000 (36%) were called active. Another 18% or so got no clear call; they are omitted. No stated cut-off is given here; in the data, active means normalized growth mostly below about 0.91 (no sharp cut-off); inconclusive means no clear call, values can overlap the other calls; inactive means mostly above about 0.92. The list shows a part of the results.
Classes used: yes (1) = active, no (0) = inactive

| compound | label.class |
| --- | --- |
| COc1ccc(/C=C/C(=O)O)cc1OC | no (0) |
| OC/C=C/c1ccc(O)c(O)c1 | no (0) |
| Cc1cccc(CN2CCN(C(c3ccccc3)c3ccc(Cl)cc3)CC2)c1 (configuration not stated) | yes (1) |
| CCCCC(CC)CN=C(N)NC(N)=NCCCCCCN=C(N)NC(N)=NCC(CC)CCCC (configuration not stated) | yes (1) |
| CCn1cc(C(=O)O)c(=O)c2cc3c(cc21)OCO3 | no (0) |
| CCCN(CCC)CCc1cccc2c1CC(=O)N2 | no (0) |
| C[C@]12CCC3c4ccc(OS(=O)(=O)O)cc4CCC3C1CCC2=O (some centres not stated) | no (0) |
| NCCCCN=C(N)N | no (0) |
| Oc1ccc(/C=C/c2cc(O)cc(O)c2)cc1 | no (0) |
| CCOC(=O)C1=C[C@]2(CC)CCCN3CCc4c(n1c1ccccc41)[C@@H]32 | no (0) |
| COc1ccc(/C=C/C(=O)c2cc(O)ccc2O)cc1 | yes (1) |
| CCn1cc(C(=O)O)c(=O)c2cnc(N3CCCC3)nc21 | no (0) |
